test_summary: Cytotoxicity against HEEC assessed as decrease in cell proliferation after 48 hrs by MTT assay
Format: toxicity
condition_details: human, HEEC cells
Below is a list of entries, each paired with its recorded IC50 at 48 h value.
Write it as a number; the unit µM goes unstated.

Use these answered entries as a reference point.
O=C1C(O)=C(C(c2ccc([N+](=O)[O-])cc2)c2c(-c3ccccc3)[nH]c3ccccc23)C(=O)c2ccccc21 (centres undefined) ... 14.2
O=C1C(O)=C(C(c2ccc(Cl)cc2)c2c[nH]c3ccccc23)C(=O)c2ccccc21 (centres undefined) ... 102
O=C1C(O)=C(C(c2ccc([N+](=O)[O-])cc2)c2c[nH]c3ccc(Br)cc23)C(=O)c2ccccc21 (centres undefined) ... 45.2

### Prompt Please look at this compound and report its IC50 at 48 h: O=C1C(O)=C(C(c2ccc(F)cc2)c2c[nH]c3ccccc23)C(=O)c2ccccc21 (centres undefined)
### Response 65.2

Where do the numbers come from? From ChEMBL document CHEMBL3860081.
